These entries and their values trace back to patent US20260285850A1.

Collected Amaranth, Palmer / Pigweed, Palmer plant response rating (0 to 100 scale) values appear next to each entry.
- Tested on: palmer (palmer amaranth, palmer pigweed, Amaranthus palmeri)
- assay-protocol: Test A postemergence application, visual injury rating 0-100
- Format: in vivo
- setup-conditions: Postemergence, 125 g ai/ha, 10 days; 0 is no effect, 100 is complete control
Give a plain numeric answer without units written out.

Consider the worked cases shown below.
In: Item CCOC(=O)COC(=O)C1C=CC(NC(=O)C2(C)CN(c3cc(F)cc(F)c3)C(=O)O2)C1 (stereo not drawn) has what recorded Amaranth, Palmer / Pigweed, Palmer plant response rating (0 to 100 scale)?
Out: 90

In: Another: CC(C)COC(=O)C1=CCC(NC(=O)C2(C)CN(c3cc(F)cc(F)c3)C(=O)O2)C1 (stereo not drawn)
Out: 70

From here, focus on the item given below.
In: Item CC1(C(=O)NC2CC=C(C(=O)O)C2)CN(c2cc(F)cc(F)c2)C(=O)O1 (stereo not drawn) has what recorded Amaranth, Palmer / Pigweed, Palmer plant response rating (0 to 100 scale)?
Out: 100

###

Collected Foxtail, Green plant response rating (0 to 100 scale) values appear next to each entry.
- System: green foxtail (Setaria viridis)
- assay-protocol: Test A preemergence soil spray, visual injury rating 0-100
- Format: in vivo
- setup-conditions: 125 g ai/ha, 10 days, 0 = no effect, 100 = complete control

Consider the worked cases shown below.
In: Item CC1(C(=O)NC2C=CC(C(=O)OC3CCCC3)C2)CN(c2cc(F)cc(F)c2)C(=O)O1 (stereo not shown) [Compound 57] has what recorded Foxtail, Green plant response rating (0 to 100 scale)?
Out: 50

In: Another: CONC(=O)C1CC(NC(=O)C2(C)CN(c3cc(F)cc(F)c3)C(=O)O2)CO1 (stereo not shown) [Compound 41]
Out: 0

In: Another: CCOC(=O)C1C=CC(NC(=O)C2(C)CN(c3cc(F)cc(Cl)c3)C(=O)O2)C1 (stereo not shown) [Compound 3]
Out: 100

In: Another: CCOC(=O)COC(=O)C1C=CC(NC(=O)C2(C)CN(c3cc(F)cc(F)c3)C(=O)O2)C1 (stereo not shown) [Compound 53]
Out: 20

In: Another: CCOC(=O)C1=CCC(NC(=O)C2(C)CN(c3cc(F)cc(F)c3)C(=O)O2)C1 (stereo not shown) [Compound 15]
Out: 100

In: Another: CC1(C(=O)NC2CC=C(C(=O)O)C2)CN(c2cc(F)cc(F)c2)C(=O)O1 (stereo not shown) [Compound 38]
Out: 20

In: Another: CC(C)COC(=O)C1C=CC(NC(=O)C2(C)CN(c3cc(Cl)cc(Cl)c3)C(=O)O2)C1 (stereo not shown) [Compound 66]
Out: 100

In: Another: CCOC(=O)C1CC(NC(=O)C2(C)CN(c3cc(F)cc(F)c3)C(=O)O2)CO1 (stereo not shown) [Compound 31]
Out: 0

Others:
In: Item COC(=O)C1CCC(NC(=O)C2(C)CN(c3cc(F)cc(F)c3)C(=O)O2)C1 (stereo not shown) [Compounds 10] has what recorded Foxtail, Green plant response rating (0 to 100 scale)?
Out: 90

In: Another: CC(C)COC(=O)C1=CCC(NC(=O)C2(C)CN(c3cc(F)cc(F)c3)C(=O)O2)C1 (stereo not shown) [Compound 16]
Out: 100

In: Another: COC(=O)C1=CC[C@H](NC(=O)C2(C)CN(c3cc(F)cc(F)c3)C(=O)O2)C1 (mixture of isomers) [Compound 37]
Out: 90

In: Another: CCOC(=O)C1CCC(NC(=O)C2(C)CN(c3cc(F)cc(Cl)c3)C(=O)O2)C1 (stereo not shown) [Compound 19]
Out: 90

In: Another: CC(C)OC(=O)C1CC(NC(=O)C2(C)CN(c3cc(F)cc(F)c3)C(=O)O2)CO1 (stereo not shown) [Compound 32]
Out: 0

###

Collected Foxtail, Green plant response rating (0 to 100 scale) values appear next to each entry.
- Test system: green foxtail (Setaria viridis)
- assay-protocol: Test A postemergence application, visual injury rating 0-100
- Assay type: in vivo
- setup-conditions: Postemergence, 16 g ai/ha, greenhouse 10 days; 0 no effect, 100 complete control
- Source text: […]
Give a plain numeric answer without units written out.

In: Item CC(C)COC(=O)C1=CCC(NC(=O)C2(C)CN(c3cc(Cl)cc(Cl)c3)C(=O)O2)C1 (stereo not drawn) [Compound 155] has what recorded Foxtail, Green plant response rating (0 to 100 scale)?
Out: 0

In: Another: CC1(C(=O)NC2CC=C(C(=O)NS(=O)(=O)c3ccccc3)C2)CN(c2cc(F)cc(F)c2)C(=O)O1 (racemic) [Compound 104]
Out: 40

In: Another: CC1(C(=O)NC2C=CC(C(=O)NO)C2)CN(c2cc(F)cc(F)c2)C(=O)O1 (stereo not drawn) [Compound 137]
Out: 0

Others:
In: Item CCOC(=O)C1=CCC(NC(=O)C2(C)CN(c3cc(Cl)cc(Cl)c3)C(=O)O2)C1 (stereo not drawn) [Compound 113] has what recorded Foxtail, Green plant response rating (0 to 100 scale)?
Out: 0

In: Another: CC1(C(=O)NC2CC=C(C(=O)OCC(F)(F)F)C2)CN(c2cc(Cl)cc(Cl)c2)C(=O)O1 (stereo not drawn) [Compound 96]
Out: 90

In: Another: CCOC(=O)C1CC(NC(=O)C2(C)CN(c3cc(F)cc(F)c3)C(=O)O2)C1 (stereo not drawn) [Compound 125]
Out: 80

In: Another: COC(=O)C1C=CC(NC(=O)C2(C)CN(c3cc(Cl)c(F)c(Cl)c3)C(=O)O2)C1 (stereo not drawn) [Compound 150]
Out: 20

In: Another: CC1(C(=O)NC2CC=C(C(=O)O)C2)CN(c2cc(F)cc(Cl)c2)C(=O)O1 (stereo not drawn) [Compound 160]
Out: 0

###

Collected Ryegrass, Italian plant response rating (0 to 100 scale) values appear next to each entry.
- System: ryegrass, Italian (italian ryegrass, Lolium multiflorum)
- assay-protocol: Test A preemergence soil spray, visual injury rating 0-100
- Type: in vivo
- setup-conditions: 500 g ai/ha, 10 days, 0 = no effect, 100 = complete control
Give a plain numeric answer without units written out.

In: Item CC1(C(=O)NC2C=CC(C(=O)OCCS(C)(=O)=O)C2)CN(c2cc(Cl)cc(Cl)c2)C(=O)O1 (stereo not shown) has what recorded Ryegrass, Italian plant response rating (0 to 100 scale)?
Out: 90

In: Another: COC(=O)[C@H]1C[C@@H](NC(=O)C2(C)CN(c3cc(F)cc(F)c3)C(=O)O2)[C@H]2C[C@H]21 (stereo partly shown)
Out: 100

In: Another: CC(C)OC(=O)C1C=CC(NC(=O)C2(C)CN(c3cc(Cl)cc(Cl)c3)C(=O)O2)C1 (stereo not shown)
Out: 90

From here, focus on the item given below.
In: Item CC1(C(=O)NC2C=CC(C(=O)OCC#N)C2)CN(c2cc(F)cc(F)c2)C(=O)O1 (stereo not shown) has what recorded Ryegrass, Italian plant response rating (0 to 100 scale)?
Out: 100

###

- Test system: barnyardgrass (Echinochloa crus-galli)
- assay-protocol: Test A postemergence application, visual injury rating 0-100
- Format: in vivo
- setup-conditions: 62 g ai/ha, postemergence, 10 days, 0 = no effect, 100 = complete control
Collected Barnyardgrass plant response rating (0-100) values appear next to each entry.
Give a plain numeric answer without units written out.

Consider the worked cases shown below.
In: Item C=CC1(C(=O)NC2COC(C(=O)OC)C2)CN(c2cc(F)cc(F)c2)C(=O)O1 (stereo not shown) [Compound 171] has what recorded Barnyardgrass plant response rating (0-100)?
Out: 80

In: Another: CCOC(=O)C1C=CC(NC(=O)C2(C)CN(c3cc(C)cc(C)c3)C(=O)O2)C1 (stereo not shown)
Out: 100

In: Another: CC1(C(=O)NC2C=CC(C(=O)O)C2)CN(c2cc(F)cc(F)c2)C(=O)O1 (stereo not shown) [Compound 138]
Out: 80

From here, focus on the item given below.
In: Item COC(=O)C1=CCC(NC(=O)C2(C)CN(c3cc(F)c(F)c(F)c3)C(=O)O2)C1 (mixture of isomers) has what recorded Barnyardgrass plant response rating (0-100)?
Out: 100

###

- Test system: ryegrass, Italian (italian ryegrass, Lolium multiflorum)
- assay-protocol: Test A preemergence soil spray, visual injury rating 0-100
- Type: in vivo
- setup-conditions: 31 g ai/ha, 10 days, 0 = no effect, 100 = complete control
Collected Ryegrass, Italian plant response rating (0-100) values appear next to each entry.
Give a plain numeric answer without units written out.

In: Item CCOC(=O)COC(=O)C1C=CC(NC(=O)C2(C)CN(c3cc(F)cc(F)c3)C(=O)O2)C1 (centres unmarked) has what recorded Ryegrass, Italian plant response rating (0-100)?
Out: 70

Others:
In: Item CSCCOC(=O)C1C=CC(NC(=O)C2(C)CN(c3cc(Cl)cc(Cl)c3)C(=O)O2)C1 (centres unmarked) has what recorded Ryegrass, Italian plant response rating (0-100)?
Out: 30

In: Another: COC(=O)C1=CC[C@H](NC(=O)C2(C)CN(c3cc(F)cc(F)c3)C(=O)O2)C1 (mixture of isomers)
Out: 70

In: Another: CCOC(=O)C1CC(NC(=O)C2(C)CN(c3cc(F)cc(F)c3)C(=O)O2)CO1 (centres unmarked)
Out: 0

In: Another: CC1(C(=O)NC2CC=C(C(=O)OCC(F)(F)F)C2)CN(c2cc(F)cc(F)c2)C(=O)O1 (centres unmarked)
Out: 80

In: Another: CCOC(=O)C1=CCC(NC(=O)C2(C)CN(c3cc(Cl)cc(Cl)c3)C(=O)O2)C1 (centres unmarked)
Out: 60

In: Another: CCOC(=O)C1=CCC(NC(=O)C2(C)CN(c3cc(F)cc(F)c3)C(=O)O2)C1 (centres unmarked)
Out: 80

In: Another: CC(C)OC(=O)C1CCC(NC(=O)C2(C)CN(c3cc(F)cc(Cl)c3)C(=O)O2)C1 (centres unmarked)
Out: 20
